# target-entity: HLA-A*01:01_… (HLA-PEPTIDE target G10), recombinant biotinylated complex (human, enzymatically biotinylated (BirA))
# protocol-text: scFv PPE ELISA
measurement-type: fold selective binding to target pHLA over minipool of negative control pHLAs

- G10(4D10) scFv (scFv, V domains shown) VH: QVQLVQSGAEVKKPGASVKVSCKASGYTFTGYYLHWVRQAPGQGLEWMGMIGPSDGSTSYAQKFQGRVTMTRDTSTSTVYMELSSLRSEDTAVYYCARDGDAFDIWGQGTMVTVSS VL: DIQMTQSPSSLSASVGDRVTITCRASQGISSWLAWYQQKPGKAPKLLIYDASNLETGVPSRFSGSGSGTDFTLTISSLQPEDFATYYCQQSYSTPLTFGGGTKVEIK: ≥ 3 fold
- G10(1H08) scFv (scFv, V domains shown) VH: QVQLVQSGAEVKKPGASVKVSCKASGVTFSTSAISWVRQAPGQGLEWMGWISPYNGNTDYAQMLQGRVTMTRDTSTSTVYMELSSLRSEDTAVYYCARDAHQYYDFWSGYYSGTYYYGMDVWGQGTTVTVSS VL: DIQMTQSPSSLSASVGDRVTITCRASQGISNYLAWYQQKPGKAPKLLIYSASNLQSGVPSRFSGSGSGTDFTLTISSLQPEDFATYYCQQAYSFPWTFGQGTKVEIK: ≥ 3 fold

Where do the numbers come from? From patent US20240059797A1.
